Assay: S. cerevisiae growth inhibition in restrictive medium, OD615, pilot screen, restrictive growth control, yeast lifespan reduction project (AID 706);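 note: modified DeaD lifespan yeast strain shifted to restrictive glucose medium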
Settings: OD615, 48 h, at 10 µM, stronger effect = higher value
reported-property: growth inhibition (%)
Unit % implied. Number only.

Answered examples (6):
{"columns": ["molecule", "growth inhibition, %"],
 "data": [
  ["COc1ccccc1OCCNC(=O)c1cccs1", 3.83],
  ["CC(C)OCCCNS(=O)(=O)c1ccc2c(c1)oc(=O)n2C", -6.73],
  ["CCCCCn1c(=O)[nH]c2cc(C(=O)NCCCN3CCCCC3)ccc2c1=O", 6.35],
  ["COc1ccccc1NC(=O)C1(C)Cc2ccccc2C(=O)O1 (stereo not drawn)", 5.93],
  ["O=C(/C=N/O)Nc1ccccc1C(=O)O", -16.7],
  ["CCOc1cccc(OCCCCn2ccnc2)c1", -16.8]
]}

Below: the item to evaluate.
(Q) Entry CCCC(=O)C1=C(N(C)c2ccccc2)CC(C)(C)C(C(=O)OC)C1=O (stereo not drawn) : reported growth inhibition = ?
(A) -2.86

###

List of viability values.
Test: Her2 expression decrease, cell viability multiplex – SKBR3 breast tumor cells, AlphaScreen, ATP viability, primary screen (AID 461);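 note: percent of carrier control wells set as 100% viability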
Conditions: SKBR3 Her2 protein level, 18-24 h, measured here: SKBR3 viability, ATP luminescence, at 10 µM
Please reply with the bare figure in % and do not write the unit itself.

{"columns": ["compound", "reported-property", "uom", "endpoint-value"],
 "data": [
  ["O=C(Cn1ncc2c(=O)oc3ccccc3c21)NCCCN1CCCC1=O", "viability", "%", 86.5]
]}

(Q) # viability lookup, item CC1(C)NC(=O)N(CC(O)COc2cccc(F)c2)C1=O (configuration not stated)
(A) 97

(Q) And CCC1CCCCN1CCCNC(=O)CC1Oc2ccc(C)cc2NC1=O (configuration not stated) ?
(A) 110

###

Test: RAM pathway blockade in budding yeast – dse1pr::URA3 reporter, 5-FOA selection, pilot screen (AID 869);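 note: 0% = DMSO wells with no growth and 100% = 10 µM 1-NA-PP1 with full growth; RAM network block rescues cells from 5-FOA so hits raise OD615 growth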
Conditions: S. cerevisiae dse1pr::URA3 5-FOA growth, OD615, 2 d; at 10 µM; stronger effect = higher value; strain carries analog-sensitive mutant Cbk1 kinase
inhibition reference
Give the quantity in %, number only.

The examples below pair each entry with its known result.
{"columns": ["compound", "uom", "inhibition"],
 "data": [
  ["Clc1ss/c(=N\\c2ccccn2)c1Cl", "%", 1.77],
  ["COc1ccc(S(=O)(=O)N2CCCC2C(=O)Nc2ccc(O)cc2)cc1 (stereo not drawn)", "%", 1.98],
  ["COc1cc(OC)c2c(c1)OC(c1ccc(OC)c(OC)c1)C(O)C2=O (stereo not drawn)", "%", 2.65],
  ["Cc1cc(/C=N/n2cnnc2)c(C)n1-c1ccc(C(=O)O)cc1", "%", 0.98],
  ["CCc1ccc(C2CC(c3cccc(OC)c3)n3nc(N)nc3N2)cc1 (stereo not drawn)", "%", 1.21],
  ["Cc1ccc(C(=O)Nc2c(C(=O)N3CCOCC3)cnn2-c2ccccc2)cc1", "%", 0.475],
  ["Cc1ccc(N2C(=O)c3oc4ccccc4c(=O)c3C2c2cccc(O)c2)nc1 (stereo not drawn)", "%", 3.22],
  ["CNC(=O)CN(c1ccc(C(C)C)cc1)S(C)(=O)=O", "%", 1.04],
  ["CC1(C)CC(=O)C(=CN2CCN(C(=O)c3ccco3)CC2)C(=O)C1", "%", 2.93],
  ["COc1ccc(C2C(C(C)=O)=C(C)N=c3s/c(=C/c4ccc5c(c4)OCO5)c(=O)n32)cc1 (stereo not drawn)", "%", 0.93]
]}

(Q) Please look up its inhibition: `CCNc1ccc(C(=O)OCC)cc1NC(=O)c1cc(S(=O)(=O)N2CCOCC2)ccc1C`
(A) 0.96

(Q) Okay, and `CCOC(=O)c1[nH]c(C)c(C(=O)OCC)c1C` ?
(A) 3.55

(Q) // repeat for `O=C(O)c1cccc2c1C(=O)N(C1CCCCC1)C2` and report
(A) 1.97

(Q) And then `N#Cc1c2n(c(=O)[nH]c1=O)CCCCC2` , what is it?
(A) -0.04

(Q) What would you report for COC(=O)C1(C)Nc2ccccc2C(=O)N1c1ccccc1C (stereo not drawn) ?
(A) 2.51

(Q) # iterate: `Cc1ccc2cc(CCNC(=O)C(C)C)c(=O)[nH]c2c1C`
(A) 1.52

(Q) `CCOC(=O)Nc1ccc2c(c1)N(C(=O)OCCN(C)C)c1ccccc1CC2` , same question.
(A) 1.89

(Q) Then what about the compound `CC1(C)CC(=O)c2cnc(NC(=O)CCc3ccccc3)nc2C1` ?
(A) 1.27

(Q) Next: `Cc1noc(NS(=O)(=O)c2ccc(NC(=O)CSc3ncccn3)cc2)c1C`
(A) 0.615

(Q) Param item: Cc1ccc(Cl)cc1N1CCN(C(=O)C2CCC(=O)N2C(C)C)CC1 (stereo not drawn)
(A) -0.505

(Q) Also `CCOC(=O)C1CCN(C(=O)CN(c2ccc(Cl)c(C(F)(F)F)c2)S(C)(=O)=O)CC1` , if possible.
(A) -0.1

(Q) Here is the next compound: `COCCNC(=O)c1cc2c(=O)n3cccc(C)c3nc2n1C`
(A) 1.85

(Q) Same thing, different compound: `CSc1ccc(CN2CCC(O)CC2)cc1`
(A) 1.4

###

Assay: H69AR cell proliferation blockers – human, duplicate replicates, primary screen (AID 580);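 note: 100% = mean luminescence of untreated wells and 0% = no signal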
Conditions: H69AR lung tumor cells viability, ATP luminescence, 72 h; at 10 µM; stronger effect = lower value
This section presents compounds with their documented viability values.
# number only, unit % dropped from output

Here's what some known entries look like.
{"columns": ["compound", "uom", "viability"],
 "data": [
  ["O=C(Nc1cccnc1)Nc1ccccn1", "%", 96.9],
  ["CC1CN(c2ccc(Oc3ccccc3)cc2)c2nc3c(c(=O)n(CC(N)=O)c(=O)n3C)n2C1 (stereo unspecified)", "%", 79.1],
  ["Cc1ccc(-n2c3c(cc(C(=O)NCCCN4CCOCC4)c2=O)C(=O)CC(C)(C)C3)cc1", "%", 85],
  ["CCCCN=CC1=C(O)C(C(=O)OC)C(C)(C)CC1=O (stereo unspecified)", "%", 91.4],
  ["CC(C)CCN(C)C1CCN(S(=O)(=O)c2ccc(F)cc2)CC1", "%", 81]
]}

Here is the next item to consider.
(Q) # lookup: viability of O=C(CN1C(=O)NC(Cc2ccccc2)C1=O)Nc1ccccc1 (stereo unspecified)
(A) 96.7

###

Test: reduced viability of SK-BR-3 breast cancer cells – cell-based, 24 h, human, pilot screen (AID 572);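 note: compound exposure lasted between 18 and 24 h rather than exactly 24 h; 100% = carrier-treated control wells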
Conditions: SK-BR-3 viability, CellTiter-Glo luminescence, at 10 µM, stronger effect = lower value
reported-property: viability (%)
# output: bare number, implied unit %

{"columns": ["compound", "uom", "viability"],
 "data": [
  ["CSC1=N/C(=C\\C=C\\c2cccs2)C(=O)S1", "%", 95]
]}

(Q) I'd like to know its viability. The compound in question is CN(C)CCCN1C(=O)CSC1c1ccccc1 (stereo unspecified)
(A) 100

(Q) Okay, and CC1(C)CC2CC(C)(CN2S(=O)(=O)c2ccc(N)cc2)C1 (stereo unspecified) ?
(A) 120

(Q) Same again, this time with `COC(=O)CSC1=NS(=O)(=O)c2ccccc21`
(A) 143

(Q) Ok, now `COc1ccc(N2CCN(c3oc(COc4ccccc4Cl)nc3C#N)CC2)cc1`
(A) 109

(Q) Try the compound `Cc1ccc(S(=O)(=O)N(CC(=O)N2CCC(C(N)=O)CC2)Cc2ccc(F)cc2)cc1`
(A) 93

###

Assay: MRP1 drug-resistance reversers in H69AR cells – cell-based, doxorubicin co-treatment, pilot screen (AID 601)
Details: H69AR cells + 2 uM doxorubicin, CellTiter-Glo, 72 h; at 10 µM; stronger effect = higher value
reported-property: differential viability (reversal) (%)
Report as a plain number; the unit % is understood.

{"columns": ["compound", "uom", "differential viability (reversal)"],
 "data": [
  ["CCn1c(C(=O)N2CCC(C(=O)N3CCN(c4ccccn4)CC3)CC2)cc2sccc21", "%", 32.9],
  ["CCOC(=O)c1ccc(N=c2sc(C(=O)OC)cc(=O)n2Cc2ccco2)cc1", "%", 0.27]
]}

(Q) Consider the compound shown here: COc1ccc(C2C(C(C)=O)=C(C)N=c3s/c(=C/c4ccc5c(c4)OCO5)c(=O)n32)cc1 (stereo unspecified) What is its recorded differential viability (reversal)?
(A) 17.7

(Q) Let us now turn to COc1ccc(CCNC(=O)C2(C)CCC(=O)N2Cc2ccc3c(c2)OCO3)cc1OC (stereo unspecified)
(A) 5.6

(Q) Request: CCOC(=O)N1CCC(N2C(=O)c3ccccc3C2Nc2cc(Cl)c(OC)cc2OC)CC1 (stereo unspecified)
(A) 14

(Q) Follow-up entry: CC(NC(=O)c1cc2c(=O)n(C)c3ccccc3c2n1C)c1ccc2c(c1)OCCO2 (stereo unspecified)
(A) -20.9

(Q) Same question, `COCCN1C=C(C(=O)OC)C(c2cc3c(cc2Br)OCO3)C(C(=O)OC)=C1` this time
(A) 3.38

(Q) Try this compound too: CC1CC(NC(=O)c2cnc3n(c2=O)CCS3)CC(C)(C)C1 (stereo unspecified)
(A) 6.09

(Q) Field entry: C#CCOC(=O)C1C2C=CC(C2)C1C(=O)O (stereo unspecified)
(A) 11.9

(Q) Try the compound `O=C(C1CCN(c2nnc(-n3cccc3)s2)CC1)N1CCOCC1`
(A) 0.17

(Q) Try `Cc1ccc(CCP(=O)(O)CN2CCOCC2)cn1` next.
(A) 12.3

(Q) Now consider `O=C(NCCN1CCCCCC1)c1ccc(CS(=O)(=O)c2ccc(Br)cc2)o1` and answer again.
(A) 7.95

(Q) Another compound to look at: `O=C(Cn1ncc2c1-c1ccccc1OC2)N1CCc2ccccc21`
(A) -0.91

(Q) Next entry: `CN(CCCNC(=O)c1cn(C)c2ccc(S(=O)(=O)N(C)C)cc2c1=O)c1ccccc1`
(A) 17.1

(Q) # iterate: `O=C(NCc1ccc(F)cc1)c1cc2ccccn2n1`
(A) 17.5

(Q) Here is the next compound: `O=C(c1cnc2n(c1=O)CCS2)N(C1CCCCC1)C1CCCCC1`
(A) 5.03

(Q) Lookup CCCCc1ccc(NC(=O)C2CCCO2)cc1 (stereo unspecified)
(A) 20.8

(Q) Input `O=C(Cn1nc(Cc2ccncc2)c2ccccc2c1=O)N1CCN(C(=O)c2ccco2)CC1`
(A) -8.19

(Q) Would you mind doing `CN(C)c1ccc(NC(=O)Cn2cc3c(n2)CCCC3)cc1` as well?
(A) -10.1
